# System: Sarcina lutea 8340
# assay-summary: MIC against human bacteria in vitro
# Format: cell-based
# condition-label: Micrococcus luteus; Sarcina lutea 8340; 5% chocolated horse blood agar, 18 hours; read-out: MIC
Listed next: entries and their corresponding MIC.

Recorded MIC, per entry:
compound	MIC
C/C(=C\c1ncc(-c2ccsc2)o1)C[C@@H]1OC[C@H](C[C@@H]2O[C@H]2[C@@H](C)[C@H](C)O)[C@@H](O)[C@H]1O	> 128 µg/mL
C/C(=C\c1ncc(-c2ccc(CO)cc2)o1)C[C@@H]1OC[C@H](C[C@@H]2O[C@H]2[C@@H](C)[C@H](C)O)[C@@H](O)[C@H]1O	128 µg/mL
C/C(=C\c1ncc(-c2ccc(C#N)cc2)o1)C[C@@H]1OC[C@H](C[C@@H]2O[C@H]2[C@@H](C)[C@H](C)O)[C@@H](O)[C@H]1O	> 128 µg/mL
COc1ccc(-c2cnc(/C=C(\C)C[C@@H]3OC[C@H](C[C@@H]4O[C@H]4[C@@H](C)[C@H](C)O)[C@@H](O)[C@H]3O)o2)cc1	> 100 µg/mL
CSc1cccc(-c2cnc(/C=C(\C)C[C@@H]3OC[C@H](C[C@@H]4O[C@H]4[C@@H](C)[C@H](C)O)[C@@H](O)[C@H]3O)o2)c1	> 128 µg/mL

The compound C/C(=C\c1ncc(-c2cccc([S+](C)[O-])c2)o1)C[C@@H]1OC[C@H](C[C@@H]2O[C@H]2[C@@H](C)[C@H](C)O)[C@@H](O)[C@H]1O (some centres unmarked) showed MIC equal to 128 µg/mL

The compound "C/C(=C\c1ncc(-c2ccccc2)o1)C[C@@H]1OC[C@H](C[C@@H]2O[C@H]2[C@@H](C)[C@H](C)O)[C@@H](O)[C@H]1O" showed MIC equal to ≥ 100 µg/mL

The compound "C/C(=C\c1ncc(-c2cccc([N+](=O)[O-])c2)o1)C[C@@H]1OC[C@H](C[C@@H]2O[C@H]2[C@@H](C)[C@H](C)O)[C@@H](O)[C@H]1O" showed MIC equal to > 128 µg/mL

The compound "C/C(=C\c1nc(C)c(-c2ccccc2)o1)C[C@@H]1OC[C@H](C[C@@H]2O[C@H]2[C@@H](C)[C@H](C)O)[C@@H](O)[C@H]1O" showed MIC equal to > 100 µg/mL

The compound "C/C(=C\c1ncc(CCCCCCCC(=O)O)o1)C[C@@H]1OC[C@H](C[C@@H]2O[C@H]2[C@@H](C)[C@H](C)O)[C@@H](O)[C@H]1O" showed MIC equal to > 16 µg/mL

The compound "C/C(=C\c1nc(-c2ccccc2)c(-c2ccccc2)o1)C[C@@H]1OC[C@H](C[C@@H]2O[C@H]2[C@@H](C)[C@H](C)O)[C@@H](O)[C@H]1O" showed MIC equal to > 100 µg/mL

----------
# System: Past. multocida PA1
# assay-summary: MIC against veterinary bacteria in vitro
# condition-label: Pasteurella multocida, PA1, 18 h
Listed next: entries and their corresponding MIC.
Quick reminder: number only, in µg/mL, skip the unit.

Recorded MIC, per entry:
compound	MIC [µg/mL]
C/C(=C\c1ncc(-c2ccc(C=O)cc2)o1)C[C@@H]1OC[C@H](C[C@@H]2O[C@H]2[C@@H](C)[C@H](C)O)[C@@H](O)[C@H]1O [Example 15]	10
C/C(=C\c1ncc(-c2ccsc2)o1)C[C@@H]1OC[C@H](C[C@@H]2O[C@H]2[C@@H](C)[C@H](C)O)[C@@H](O)[C@H]1O [Example 20]	2.5

The compound C/C(=C\c1cc(C)on1)C[C@@H]1OC[C@H](C[C@@H]2O[C@H]2[C@@H](C)[C@H](C)O)[C@@H](O)[C@H]1O [Example 33, 5-Methyl-3-(1-normon-2-yl) isoxazole A] showed MIC equal to 1.3

----------
# Tested on: M. suipneumoniae Str. 11
# assay-summary: MIC against mycoplasma in vitro
# Type: cell-based
# condition-label: Mesomycoplasma hyopneumoniae, 144 h; M. suipneumoniae Str. 11; 6 days, 37° C.; read-out: MIC
quantity-measured: MIC

The compound "C/C(=C\c1ncc(-c2cccc(S(C)(=O)=O)c2)o1)C[C@@H]1OC[C@H](C[C@@H]2O[C@H]2[C@@H](C)[C@H](C)O)[C@@H](O)[C@H]1O" showed MIC equal to 0.5 µg/mL

The compound "COC(=O)c1ccc(-c2cnc(/C=C(\C)C[C@@H]3OC[C@H](C[C@@H]4O[C@H]4[C@@H](C)[C@H](C)O)[C@@H](O)[C@H]3O)o2)cc1" showed MIC equal to 0.25 µg/mL

The compound "C/C(=C\c1ncc(-c2cccc(C#N)c2)o1)C[C@@H]1OC[C@H](C[C@@H]2O[C@H]2[C@@H](C)[C@H](C)O)[C@@H](O)[C@H]1O" showed MIC equal to 0.05 µg/mL

----------
# System: Haemophilus influenzae Wy21
# assay-summary: MIC against human bacteria in vitro
# Type: cell-based
# condition-label: Haemophilus influenzae Wy21; 5% chocolated horse blood agar, 18 hours; read-out: MIC
Listed next: entries and their corresponding MIC.
Quick reminder: number only, in µg/mL, skip the unit.

compound	output-unit	MIC
C/C(=C\c1ncc(Cc2ccccc2)o1)C[C@@H]1OC[C@H](C[C@@H]2O[C@H]2[C@@H](C)[C@H](C)O)[C@@H](O)[C@H]1O	µg/mL	2
C/C(=C\c1nc(C)c(C)o1)C[C@@H]1OC[C@H](C[C@@H]2O[C@H]2[C@@H](C)[C@H](C)O)[C@@H](O)[C@H]1O	µg/mL	2.5
C/C(=C\c1ncc(-c2ccc([S+](C)[O-])cc2)o1)C[C@@H]1OC[C@H](C[C@@H]2O[C@H]2[C@@H](C)[C@H](C)O)[C@@H](O)[C@H]1O (stereo partly shown)	µg/mL	4

Reported MIC (Haemophilus influenzae Wy21) for entry "COC(=O)c1ccc(-c2cnc(/C=C(\C)C[C@@H]3OC[C@H](C[C@@H]4O[C@H]4[C@@H](C)[C@H](C)O)[C@@H](O)[C@H]3O)o2)cc1" is 2

Reported MIC (Haemophilus influenzae Wy21) for entry "C/C(=C\c1cc(-c2ccccc2)no1)C[C@@H]1OC[C@H](C[C@@H]2O[C@H]2[C@@H](C)[C@H](C)O)[C@@H](O)[C@H]1O" is 16

Reported MIC (Haemophilus influenzae Wy21) for entry "C/C(=C\c1ncc(-c2ccccc2)s1)C[C@@H]1OC[C@H](C[C@@H]2O[C@H]2[C@@H](C)[C@H](C)O)[C@@H](O)[C@H]1O" is 50

Reported MIC (Haemophilus influenzae Wy21) for entry "C/C(=C\c1ncc(-c2cccc([N+](=O)[O-])c2)o1)C[C@@H]1OC[C@H](C[C@@H]2O[C@H]2[C@@H](C)[C@H](C)O)[C@@H](O)[C@H]1O" is 2

Reported MIC (Haemophilus influenzae Wy21) for entry "C/C(=C\c1cc(-c2ccccc2)on1)C[C@@H]1OC[C@H](C[C@@H]2O[C@H]2[C@@H](C)[C@H](C)O)[C@@H](O)[C@H]1O" is 2

Reported MIC (Haemophilus influenzae Wy21) for entry "C/C(=C\c1ncc(C)o1)C[C@@H]1OC[C@H](C[C@@H]2O[C@H]2[C@@H](C)[C@H](C)O)[C@@H](O)[C@H]1O" is 2

Reported MIC (Haemophilus influenzae Wy21) for entry "C/C(=C\c1ncc(-c2ccc([N+](=O)[O-])cc2)o1)C[C@@H]1OC[C@H](C[C@@H]2O[C@H]2[C@@H](C)[C@H](C)O)[C@@H](O)[C@H]1O" is 0.1

----------
# Tested on: M. suipneumoniae NCTC 10110
# assay-summary: MIC against mycoplasma in vitro
# Format: cell-based
# condition-label: Mesomycoplasma hyopneumoniae, NCTC10110, 144 h; M. suipneumoniae NCTC 10110; 6 days, 37° C.; read-out: MIC
Listed next: entries and their corresponding log10 MIC.
All values: log10 MIC [µg/mL].

Recorded log10 MIC, per entry:
compound	quantity-measured	readout-number
C/C(=C\c1ncc(-c2ccc([S+](C)[O-])cc2)o1)C[C@@H]1OC[C@H](C[C@@H]2O[C@H]2[C@@H](C)[C@H](C)O)[C@@H](O)[C@H]1O (some centres unmarked)	log10 MIC	-0.60
C/C(=C\c1ncc(-c2ccc(CO)cc2)o1)C[C@@H]1OC[C@H](C[C@@H]2O[C@H]2[C@@H](C)[C@H](C)O)[C@@H](O)[C@H]1O	log10 MIC	-0.60
C/C(=C\c1ncc(-c2ccccc2)o1)C[C@@H]1OC[C@H](C[C@@H]2O[C@H]2[C@@H](C)[C@H](C)O)[C@@H](O)[C@H]1O	log10 MIC	0.00

The compound "C/C(=C\c1ncc(CCCCCCCCO)o1)C[C@@H]1OC[C@H](C[C@@H]2O[C@H]2[C@@H](C)[C@H](C)O)[C@@H](O)[C@H]1O" showed log10 MIC equal to 0.70

The compound "C/C(=C\c1ncc(-c2ccccc2[N+](=O)[O-])o1)C[C@@H]1OC[C@H](C[C@@H]2O[C@H]2[C@@H](C)[C@H](C)O)[C@@H](O)[C@H]1O" showed log10 MIC equal to 0.70

The compound "COC(=O)CCCCCCCc1cnc(/C=C(\C)C[C@@H]2OC[C@H](C[C@@H]3O[C@H]3[C@@H](C)[C@H](C)O)[C@@H](O)[C@H]2O)o1" showed log10 MIC equal to 1.00

The compound "C/C(=C\c1ncc(-c2ccc(C#N)cc2)o1)C[C@@H]1OC[C@H](C[C@@H]2O[C@H]2[C@@H](C)[C@H](C)O)[C@@H](O)[C@H]1O" showed log10 MIC equal to -0.30

The compound "C/C(=C/c1ncc(-c2ccccc2)o1)C[C@@H]1OC[C@H](C[C@@H]2O[C@H]2[C@@H](C)[C@H](C)O)[C@@H](O)[C@H]1O" showed log10 MIC equal to 1.00

The compound "C/C(=C\c1cc(-c2ccccc2)no1)C[C@@H]1OC[C@H](C[C@@H]2O[C@H]2[C@@H](C)[C@H](C)O)[C@@H](O)[C@H]1O" showed log10 MIC equal to 1.00

The compound "C/C(=C\c1ncc(-c2ccc(C=O)cc2)o1)C[C@@H]1OC[C@H](C[C@@H]2O[C@H]2[C@@H](C)[C@H](C)O)[C@@H](O)[C@H]1O" showed log10 MIC equal to -0.30

The compound "COC(=O)c1ccc(-c2cnc(/C=C(\C)C[C@@H]3OC[C@H](C[C@@H]4O[C@H]4[C@@H](C)[C@H](C)O)[C@@H](O)[C@H]3O)o2)cc1" showed log10 MIC equal to -0.30

The compound "C/C(=C\c1ncc(-c2ccc(Br)s2)o1)C[C@@H]1OC[C@H](C[C@@H]2O[C@H]2[C@@H](C)[C@H](C)O)[C@@H](O)[C@H]1O" showed log10 MIC equal to -0.30

The compound "C/C(=C\c1ncc(-c2ccc([N+](=O)[O-])cc2)o1)C[C@@H]1OC[C@H](C[C@@H]2O[C@H]2[C@@H](C)[C@H](C)O)[C@@H](O)[C@H]1O" showed log10 MIC equal to -0.60

The compound "C/C(=C\c1ncc(Cc2ccccc2)o1)C[C@@H]1OC[C@H](C[C@@H]2O[C@H]2[C@@H](C)[C@H](C)O)[C@@H](O)[C@H]1O" showed log10 MIC equal to 1.00
